Molecular target: Cyclin-dependent kinase 5/CDK5 activator 1 (Homo sapiens, UniProt Q00535)
Sequence (Q00535 whole entry): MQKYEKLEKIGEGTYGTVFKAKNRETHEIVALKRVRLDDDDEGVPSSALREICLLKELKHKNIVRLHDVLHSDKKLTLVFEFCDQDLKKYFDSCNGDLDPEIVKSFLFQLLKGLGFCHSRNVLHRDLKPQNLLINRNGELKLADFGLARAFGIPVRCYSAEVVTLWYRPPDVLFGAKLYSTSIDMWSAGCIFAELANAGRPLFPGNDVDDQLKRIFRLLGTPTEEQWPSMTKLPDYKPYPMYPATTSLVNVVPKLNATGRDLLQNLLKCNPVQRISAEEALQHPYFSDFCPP
Sequence (Q15078 whole entry, further chain): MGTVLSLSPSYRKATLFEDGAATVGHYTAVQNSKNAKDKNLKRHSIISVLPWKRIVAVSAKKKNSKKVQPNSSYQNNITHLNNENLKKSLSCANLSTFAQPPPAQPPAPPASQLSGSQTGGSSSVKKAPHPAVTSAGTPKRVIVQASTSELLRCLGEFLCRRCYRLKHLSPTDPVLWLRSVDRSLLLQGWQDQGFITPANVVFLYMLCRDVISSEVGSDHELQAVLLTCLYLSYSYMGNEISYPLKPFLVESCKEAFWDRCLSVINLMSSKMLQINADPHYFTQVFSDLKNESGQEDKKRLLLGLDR
Experiment: Inhibition of human recombinant Cdk5/p25 incubated for 15 mins by scintillation proximity assay
Format: protein-complex assay
OUTCOME_MEASURE: IC50 (µM)

>  <CHEMICAL_STRING>
O=S(=O)(NO)c1cc(-c2nc3ccccc3s2)cs1

>  <OUTCOME_MEASURE>
IC50

>  <UOM>
µM

>  <MEASURED>
7.42

$$$$
>  <CHEMICAL_STRING>
O=S(=O)(Nc1nccs1)c1cc(-c2nc3ccccc3s2)cs1

>  <OUTCOME_MEASURE>
IC50

>  <UOM>
µM

>  <MEASURED>
1.76

$$$$
>  <CHEMICAL_STRING>
CCOC(=O)Cc1csc(NS(=O)(=O)c2cc(-c3nc4ccccc4s3)cs2)n1

>  <OUTCOME_MEASURE>
IC50

>  <UOM>
µM

>  <MEASURED>
5.09

$$$$

P. CC(=O)c1ccc2nc(-c3csc(S(N)(=O)=O)c3)sc2c1
Q. NS(=O)(=O)c1cc(-c2nc3ccc([N+](=O)[O-])cc3s2)cs1
## Input Consider entries P and Q . Which has the numerically lower IC50? Reply with the label of the item you choose.
## Output Q
(Q: 1.27 µM, P: 6.31 µM)
